molecular target: Melanocortin receptor 4 (Homo sapiens); experiment: Agonist activity at EYFP-fused human MC4R expressed in HEK293 cells assessed as increase in cAMP accumulation after 30 mins by luminescent enzymatic complementation based assay; format: functional, cell-based
OBSERVATION TYPE: EC50 (µM)

SAMPLE SMILES	TESTED TARGET	OBSERVATION TYPE	RECORDED MEASUREMENT
CSCC[C@H](NC(=O)[C@@H]1Cc2cn(nn2)CCC[C@H](N)C(=O)N[C@@H](Cc2cnc[nH]2)C(=O)N[C@H](Cc2ccccc2)C(=O)N[C@@H](CCCNC(=N)N)C(=O)N[C@@H](Cc2c[nH]c3ccccc23)C(=O)N1)C(=O)O	Melanocortin receptor 4 (Homo sapiens)	EC50	0.72
CSCC[C@H](NC(=O)[C@@H]1Cc2cn(nn2)C[C@H](NC(=O)[C@@H](N)CCCCN)C(=O)N[C@@H](Cc2cnc[nH]2)C(=O)N[C@@H](Cc2ccccc2)C(=O)N[C@@H](CCCNC(=N)N)C(=O)N[C@@H](Cc2c[nH]c3ccccc23)C(=O)N1)C(=O)O	Melanocortin receptor 4 (Homo sapiens)	EC50	0.792
CSCC[C@H](NC(=O)[C@@H]1Cc2cn(nn2)C[C@H](NC(=O)[C@@H](N)CCCCN)C(=O)N[C@@H](Cc2cnc[nH]2)C(=O)N[C@H](C)C(=O)N[C@@H](CCCNC(=N)N)C(=O)N[C@@H](Cc2c[nH]c3ccccc23)C(=O)N1)C(=O)O	Melanocortin receptor 4 (Homo sapiens)	EC50	0.943

---

target: Melanocortin receptor 4 (Homo sapiens, UniProt P32245); assay: Agonist activity at EYFP-fused human MC4R expressed in HEK293 cells assessed as increase in cAMP accumulation after 30 mins by luminescent enzymatic complementation based assay; format: functional, cell-based
Sequence (P32245 whole entry, the tested form may be a part): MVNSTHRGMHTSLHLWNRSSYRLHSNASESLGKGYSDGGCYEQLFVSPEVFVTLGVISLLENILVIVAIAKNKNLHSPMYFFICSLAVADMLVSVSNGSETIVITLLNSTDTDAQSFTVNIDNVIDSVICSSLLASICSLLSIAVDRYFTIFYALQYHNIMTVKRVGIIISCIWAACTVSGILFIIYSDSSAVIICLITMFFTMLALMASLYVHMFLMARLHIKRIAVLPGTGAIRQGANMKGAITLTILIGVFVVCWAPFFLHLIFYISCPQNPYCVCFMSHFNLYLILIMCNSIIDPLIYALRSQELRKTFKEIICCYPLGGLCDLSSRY
Recorded EC50 for the following compounds

# input Item under review: "CSCC[C@H](NC(=O)[C@@H]1Cc2cn(nn2)C[C@H](NC(=O)[C@@H](N)CCCCN)C(=O)N[C@@H](Cc2c[nH]c3ccccc23)C(=O)N[C@H](Cc2ccccc2)C(=O)N[C@@H](CCCNC(=N)N)C(=O)N[C@@H](Cc2cnc[nH]2)C(=O)N1)C(=O)O" . Reported EC50?
# output > 3 µM

# input Next record, please: "CC[C@@H](C)[C@H]1NC(=O)[C@H](Cc2cnc[nH]2)NC(=O)[C@@H](NC(=O)[C@@H](N)CCCCN)Cn2cc(nn2)C[C@@H](C(=O)N[C@@H](CCSC)C(=O)O)NC(=O)[C@H](Cc2c[nH]c3ccccc23)NC(=O)[C@H](CCCNC(=N)N)NC1=O"
# output > 3 µM

# input Next record, please: "CSCC[C@H](NC(=O)[C@@H]1Cc2cn(nn2)C[C@H](NC(=O)[C@@H](N)CCCCN)C(=O)N[C@@H](Cc2cnc[nH]2)C(=O)N[C@H](Cc2ccccc2)C(=O)N[C@@H](CCCNC(=N)N)C(=O)N[C@@H](C)C(=O)N1)C(=O)O"
# output > 3 µM
